Target: adenosine A1 receptor (Rattus norvegicus, UniProt P25099)
Construct: Whole brain minus cerebellum and brainstem from male Long Evans rats
Sequence (P25099 1-326): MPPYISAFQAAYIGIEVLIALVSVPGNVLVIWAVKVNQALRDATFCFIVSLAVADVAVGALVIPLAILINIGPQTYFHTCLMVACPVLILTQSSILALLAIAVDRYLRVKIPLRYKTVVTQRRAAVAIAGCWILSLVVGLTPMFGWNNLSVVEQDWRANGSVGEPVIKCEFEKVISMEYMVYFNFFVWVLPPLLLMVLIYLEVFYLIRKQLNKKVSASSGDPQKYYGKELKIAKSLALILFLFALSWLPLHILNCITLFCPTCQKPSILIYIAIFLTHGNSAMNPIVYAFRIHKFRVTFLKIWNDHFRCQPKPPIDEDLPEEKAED
Experiment: Adenosine Receptor Binding--A1 Receptor Affinity (RBA1), [3H]-CHA binding, rat whole brain membranes
Conditions: 1.0 nM [3H]-CHA, 25° C., 1 h
RECORDED_METRIC: pIC50
Reminder that pIC50 is minus the log10 of a molar concentration.

In plain terms, CC(=O)OC[C@H]1O[C@@H](n2cnc3c(NCC(c4ccccc4)c4ccccc4)ncnc32)[C@H](OC(C)=O)[C@@H]1OC(C)=O has a documented pIC50 of 7.28

In plain terms, OC[C@H]1O[C@@H](n2cnc3c(NCC(c4ccccc4)c4ccc(F)cc4)nc(Cl)nc32)[C@H](O)[C@@H]1O (stereo partly shown) has a documented pIC50 of 7.16

In plain terms, OC[C@H]1O[C@@H](n2cnc3c(NC(c4ccccc4)c4ccccc4)ncnc32)[C@H](O)[C@@H]1O has a documented pIC50 of 6.07

In plain terms, O=C(OC[C@H]1O[C@@H](n2cnc3c(NCC(c4ccccc4)c4ccccc4)ncnc32)[C@H](OC(=O)c2ccccc2)[C@@H]1OC(=O)c1ccccc1)c1ccccc1 has a documented pIC50 of 5.91

In plain terms, CC(=O)OC[C@H]1O[C@@H](n2cnc3c(NCC(c4ccccc4)c4ccccc4)nc(Cl)nc32)[C@H](OC(C)=O)[C@@H]1OC(C)=O has a documented pIC50 of 4.51

In plain terms, Cc1cccc(C(CNc2ncnc3c2ncn3[C@@H]2O[C@H](CO)[C@@H](O)[C@H]2O)c2ccccc2)c1 (stereo partly shown) has a documented pIC50 of 7.89

In plain terms, OC[C@H]1O[C@@H](n2cnc3c(NCC(c4ccccc4)c4ccccc4)nc(Cl)nc32)[C@H](O)[C@@H]1O has a documented pIC50 of 7.17

In plain terms, OC[C@H]1O[C@@H](n2cnc3c(NCC(c4ccc(Cl)cc4)c4ccc(Cl)cc4)ncnc32)[C@H](O)[C@@H]1O has a documented pIC50 of 6.29

In plain terms, CC(CNc1nc(N)nc2c1ncn2[C@@H]1O[C@H](CO)[C@@H](O)[C@H]1O)(c1ccccc1)c1ccccc1 has a documented pIC50 of 6.55

In plain terms, OC[C@H]1O[C@@H](n2cnc3c(NCCC(c4ccccc4)c4ccccc4)ncnc32)[C@H](O)[C@@H]1O has a documented pIC50 of 6.86

In plain terms, OC[C@H]1O[C@@H](n2cnc3c(NCC(c4ccccc4)c4ccc(F)cc4)ncnc32)[C@H](O)[C@@H]1O (stereo partly shown) has a documented pIC50 of 7.85

In plain terms, OC[C@H]1O[C@@H](n2cnc3c(NCCCCC(c4ccccc4)c4ccccc4)ncnc32)[C@H](O)[C@@H]1O has a documented pIC50 of 6.83

In plain terms, Nc1nc(NCC(c2ccc(Cl)cc2)c2ccc(Cl)cc2)c2ncn([C@@H]3O[C@H](CO)[C@@H](O)[C@H]3O)c2n1 has a documented pIC50 of 5.72
